- System: PC-3
- assay: NCI tumour cell line growth inhibition, 48 h
Calls of active or inactive are those of the source. Cut-off read from the data, not from the text of the source: active = GI50 up to about 1.1 µM and inactive = higher.
Classes to choose from: yes (1) for active, no (0) for inactive

[Q] Tell me the recorded outcome of this test for CC(=O)N1C(=O)CC2(N=C(C)CC2=O)c2ccccc21 (stereo not given) .
[A] no (0)

[Q] Proceed to `C/C(=N\NC(=S)N1CCC1)c1ccccn1`
[A] yes (1)

[Q] Proceed to `COc1ccc(/N=C2\C(=S)N(c3ccc(OC)cc3)/C(=N/S(=O)(=O)c3ccccc3)N2c2ccccc2)cc1`
[A] no (0)

[Q] Proceed to COC(OC)C1OCC(n2cc(F)c(=O)[nH]c2=O)C1O (stereo not given)
[A] no (0)

[Q] Proceed to `CC(=O)C1=CC=C/C1=N\Nc1ccccc1`
[A] no (0)

[Q] Proceed to `CN/C(N)=N/N=C1/C(=O)Nc2ccccc21`
[A] no (0)

[Q] Proceed to `O=[N+]([O-])/C(C(Cl)=C(Cl)Cl)=C(\SCc1ccccc1)N1CCCCC1`
[A] no (0)

[Q] Proceed to `O=C1/C(=C/c2ccc(Br)s2)NC(=S)N1CN1CCOCC1`
[A] no (0)

[Q] Proceed to `N[C@H](C(=O)O)[C@H]1ON=C(Cl)[C@@H]1O`
[A] no (0)

[Q] Proceed to `CO[C@H](c1ccccc1)[C@H](O)[C@](O)(c1ccccc1)P(=O)(OC)OC`
[A] no (0)

[Q] Proceed to `Cc1cccc(/N=N/C(=O)NNc2cccc(C)c2C)c1C`
[A] no (0)

[Q] Proceed to `C[Si](C)(OCCS(=O)(=O)O)C1(Cc2cccc3ccccc23)S(=O)(=O)OCCOS1(=O)=O`
[A] no (0)

[Q] Proceed to COc1ccc2c(c1)O[C@@H]1[C@@H](OC3OC(CO)C(O)C(O)C3O)Oc3cc(OC)c(OC)cc3[C@]1(O)C2=O (stereo not given in full)
[A] no (0)

[Q] Proceed to CN(C)CC1CCC(CN(C)C)C1=O (stereo not given)
[A] no (0)

[Q] Proceed to O=C1C=C2S[C@H]3C[C@]2(C=C1Br)C1=C(N3)C(=O)c2[nH]cc3c2C1=NCC3 [(+)-DISCORHABDIN B]
[A] no (0)

[Q] Proceed to `Cc1ccc(C(=O)Oc2ccccc2)cc1/N=N/N(C)C`
[A] no (0)

[Q] Proceed to `CC(=O)O[C@H]1C(=O)[C@@]2(C)[C@H]([C@H](OC(=O)c3ccccc3)[C@]3(O)C[C@H](OC(=O)[C@H](O)[C@@H](NC(=O)c4ccccc4)c4ccccc4C)C(C)=C1C3(C)C)[C@]1(OC(C)=O)CO[C@@H]1C[C@@H]2O`
[A] yes (1)

[Q] Proceed to Cc1ccc(S(=O)(=O)NC(=O)NC(Cc2ccc(O)cc2)C(=O)O)cc1 (stereo not given)
[A] no (0)

[Q] Proceed to `CC(C)(C)OC(=O)c1cnc(Cl)cn1`
[A] no (0)

[Q] Proceed to `N#C/C(=C\c1cc(O)c(O)c(O)c1)C(N)=O`
[A] no (0)

----------
- System: 786-0
- assay: NCI tumour cell line growth inhibition, 48 h
Counter-ions that a name gives are not always drawn. Active and inactive are the calls of the source. Rule as the data show it: active = GI50 up to about 1.1 µM and inactive = higher.
Field: GI50. Provide a value for each of the compounds that follow.

[Q] State its GI50 on 786-0: O=C(O)C1C(C(=O)O)C(C(=O)O)C1C(=O)O (stereo unspecified)
[A] > 100 µM (inactive)

[Q] Proceed to CCOC(=O)[C@@]12C3C=CC(CC3)[C@]1(C(=O)c1ccccc1)C(=O)C(=O)N2c1ccccc1 (stereo partly specified)
[A] > 100 µM (inactive)

[Q] Proceed to `CCN(CC)CCCNC(=O)c1ccc([N+](=O)[O-])cc1O`
[A] > 100 µM (inactive)

[Q] Proceed to `N#C[BH2-][n+]1ccc(C(=O)NNCc2ccc(F)cc2)cc1`
[A] > 100 µM (inactive)

[Q] Proceed to CCSCC(N)C(=O)O (stereo unspecified)
[A] > 100 µM (inactive)

[Q] Proceed to `O=C1/C(=C\c2ccco2)Oc2ccccc21`
[A] > 100 µM (inactive)

[Q] Proceed to `COc1ccc(OC)c2cc(C3(C)SCCCS3)ccc12`
[A] 73.6 µM (inactive)

[Q] Proceed to [O-][S+]1CC[S+]([O-])CC[S+]([O-])CC1 (stereo unspecified)
[A] > 100 µM (inactive)

[Q] Proceed to `O=C1C(=O)N(c2cc(Cl)ccc2Cl)C(=O)C(=O)C1c1nc2ccccc2s1`
[A] > 100 µM (inactive)

[Q] Proceed to `CCOC(=O)c1c(-c2ccc(OC)cc2)ccn1C`
[A] > 10 µM (inactive)

[Q] Proceed to CC(=O)N(O)CCCCCNC(=O)CCC(=O)N(O)CCCCCNC(=O)CCC(=O)N(O)CCCCCN [DEFEROXAMINE HYDROCHLORIDE]
[A] 13.3 µM (inactive)
